Source of measurements: ChEMBL document CHEMBL3991601

SYSTEM_NAME: Casein kinase I isoform delta (Homo sapiens, UniProt P48730); further: in the data inactive means no Kd found up to 30 µM
Sequence (P48730 whole entry, canonical isoform): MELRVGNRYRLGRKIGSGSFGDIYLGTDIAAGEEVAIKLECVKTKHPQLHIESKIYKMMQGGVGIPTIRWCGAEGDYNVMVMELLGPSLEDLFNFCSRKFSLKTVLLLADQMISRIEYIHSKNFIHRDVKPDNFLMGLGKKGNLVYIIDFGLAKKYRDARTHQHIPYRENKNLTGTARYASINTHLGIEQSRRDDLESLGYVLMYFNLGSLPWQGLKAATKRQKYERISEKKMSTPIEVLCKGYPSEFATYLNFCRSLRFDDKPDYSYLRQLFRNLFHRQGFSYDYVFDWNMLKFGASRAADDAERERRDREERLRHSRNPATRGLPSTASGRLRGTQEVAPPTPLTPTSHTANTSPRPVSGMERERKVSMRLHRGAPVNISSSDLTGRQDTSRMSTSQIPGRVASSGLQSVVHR
Active and inactive are the calls of the source.
Use one of these outcomes when replying: t = active, f = inactive

Observe how each entry below is paired with its result.
| CHEM_SMILES | LABEL_VALUE |
| --- | --- |
| N#CCNC(=O)c1ccc(-c2ccnc(Nc3ccc(N4CCOCC4)cc3)n2)cc1 | f |
| CC[C@@](C)(Nc1ccnc(-c2c[nH]c3ncccc23)n1)C(=O)NCC(F)(F)F | f |

Give the logged outcome of this assay for the following molecule: C=CCN(/C=C1/C(=O)O[C@H](COC)[C@@]2(C)C1=C(O)C(=O)C1=C2[C@H](OC(C)=O)C[C@]2(C)C(=O)CC[C@@H]12)CC=C
f

Give the logged outcome of this assay for the following molecule: COCCN1CCN(Cc2ccc(-c3n[nH]c4c3C(=O)c3c(NC(=O)NN5CCOCC5)cccc3-4)cc2)CC1
t

Give the logged outcome of this assay for the following molecule: COc1cc2ncnc3c2cc1OCCCCCN(C)Cc1ccc(Br)cc1N3
f

Give the logged outcome of this assay for the following molecule: CC1(COc2ccc3c(c2)ncn3-c2ccc3cccc(N4CCC(N)CC4)c3n2)COC1
f

Give the logged outcome of this assay for the following molecule: CNC(=O)c1cccc(-c2ccc3c(N4CCOC[C@@H]4C)nc(N4CCOC[C@@H]4C)nc3n2)c1
f
